test: Pharmacokinetics of intraperitoneal or intravenous injection in CD1 mice; format: in vivo; conditions: male, CD1, mouse, plasma, ip, 10 mg/kg, IP 10 mg/kg, CD1 mice plasma, 8 h; read-out: Conc. (ng/mL) Mouse 3
// reported concentration at 8 h for each item listed
Please answer using a numeric value trailed by its unit.

smiles_input	result
Cc1ncsc1-c1ccc(CNC(=O)[C@@H]2C[C@@H](O)CN2C(=O)[C@@H](NC(=O)COCCCOc2ccc(Nc3ncc(C(F)(F)F)c(NCc4cccc(N(C)S(C)(=O)=O)c4)n3)cc2)C(C)(C)C)cc1	77.1 ng/mL
Cc1ncsc1-c1ccc(CNC(=O)[C@@H]2C[C@@H](O)CN2C(=O)[C@@H](NC(=O)CCOCCCOc2ccc(Nc3ncc(C(F)(F)F)c(NCc4cccc(N(C)S(C)(=O)=O)c4)n3)cc2)C(C)(C)C)cc1	306 ng/mL
Cc1ncsc1-c1ccc(CNC(=O)[C@@H]2C[C@@H](O)CN2C(=O)[C@@H](NC(=O)CCOCCOc2ccc(Nc3ncc(C(F)(F)F)c(NCc4cccc(N(C)S(C)(=O)=O)c4)n3)cc2)C(C)(C)C)cc1	124 ng/mL

Here is the next item to consider.
Recorded concentration at 8 h of Cc1ncsc1-c1ccc(CNC(=O)[C@@H]2C[C@@H](O)CN2C(=O)[C@@H](NC(=O)COCCOc2ccc(Nc3ncc(C(F)(F)F)c(NCc4cccc(N(C)S(C)(=O)=O)c4)n3)cc2)C(C)(C)C)cc1 , please.
151 ng/mL
